Values were extracted from paper PMC4048319.

List of Ki values.
Molecular target: PfNMT (Plasmodium falciparum)
Sequence (Q9U419 1-410): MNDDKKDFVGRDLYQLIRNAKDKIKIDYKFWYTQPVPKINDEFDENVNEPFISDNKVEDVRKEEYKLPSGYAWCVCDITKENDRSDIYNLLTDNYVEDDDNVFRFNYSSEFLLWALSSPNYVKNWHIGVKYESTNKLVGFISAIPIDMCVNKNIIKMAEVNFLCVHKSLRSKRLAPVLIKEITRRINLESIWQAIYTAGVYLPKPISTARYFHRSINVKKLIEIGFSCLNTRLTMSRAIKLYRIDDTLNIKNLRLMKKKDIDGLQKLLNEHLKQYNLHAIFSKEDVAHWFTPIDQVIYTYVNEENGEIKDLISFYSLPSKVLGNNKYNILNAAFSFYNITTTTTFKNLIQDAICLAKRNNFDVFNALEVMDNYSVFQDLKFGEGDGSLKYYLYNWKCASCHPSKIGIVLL
Test: NMT enzyme inhibition, CPM fluorescence assay (PfNMT)
Format: biochemical
Details: Ki calculated from IC50 by Cheng-Prusoff; mean of two or more determinations; read-out: PfNMT Ki

| smiles representation | property name | value measured |
| --- | --- | --- |
| O=C(NCCOc1ccccc1)c1sc2ccccc2c1OC1CCNCC1 | Ki | > 10 µM |
| O=C(NCCCc1ccccc1)c1sc2ccccc2c1OC1CCNCC1 | Ki | > 10 µM |

Which Ki is reported with PfNMT (Plasmodium falciparum) for this entry: O=C(NCCc1ccccc1)c1sc2ccccc2c1OC1CCNCC1 ?
> 10 µM
